- System: KRAS-mutant PDC tumor spheroid with HUVEC/MSC, viability
- test protocol: Anticancer human tumor 327498-153-R-J2-PDC patient-derived uterine carcinosarcoma cell line growth inhibition [KRAS2]; active = viability on the fitted dose curve at most 10% of control; inactive = the rest
- test context: second compound 0.0316 µM; first compound 10 µM
Field 'call' accepts True (active), False (inactive)

(Q) Please share the test call associated with CC1OCC2(CCN(c3cnc(Sc4ccnc(N)c4Cl)c(N)n3)CC2)C1N (configuration not stated) + C=CC(=O)N1CCN(c2nc(OCC3CCCN3C)nc3c2CCN(c2cccc4cccc(C)c24)C3)CC1CC#N .
(A) False

New cases:
(Q) Please share the test call associated with CC1(C)CCC(CN2CCN(c3ccc(C(=O)NS(=O)(=O)c4ccc(NCC5CCOCC5)c([N+](=O)[O-])c4)c(Oc4cnc5[nH]ccc5c4)c3)CC2)=C(c2ccc(Cl)cc2)C1 + C=CC(=O)N1CCN(c2nc(OCC3CCCN3C)nc3c2CCN(c2cccc4cccc(C)c24)C3)CC1CC#N .
(A) True

* * *

- Tested on: KRAS-mutant PDC tumor spheroid with HUVEC/MSC, viability
- test protocol: Anticancer human tumor 327498-153-R-J2-PDC cell line growth inhibition [KRAS2]; active means viability on the fitted dose curve at most 10% of control; inactive means the rest;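 also: spheroids exposed to agents for seven days before reading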
- test context: second compound 0.1 µM; first compound 0.01 µM
Field 'call' accepts true (1) (active), false (0) (inactive)

Field: example entries. Status: answers known.
(Q) Please share the test call associated with CN(C)C/C=C/C(=O)Nc1cc2c(Nc3ccc(F)c(Cl)c3)ncnc2cc1O[C@H]1CCOC1 + C=CC(=O)N1CCN(c2nc(=O)n(-c3c(C)ccnc3C(C)C)c3nc(-c4c(O)cccc4F)c(F)cc23)C(C)C1 .
(A) false (0)

(Q) Please share the test call associated with CCN1CCN(Cc2ccc(Nc3ncc(F)c(-c4cc(F)c5nc(C)n(C(C)C)c5c4)n3)nc2)CC1 + C=CC(=O)N1CCN(c2nc(OCC3CCCN3C)nc3c2CCN(c2cccc4cccc(C)c24)C3)CC1CC#N .
(A) false (0)

Then this molecule:
(Q) Please share the test call associated with CC(=O)OC12COC1CC(O)C1(C)C(=O)C(O)C3=C(C)C(OC(=O)C(O)C(NC(=O)OC(C)(C)C)c4ccccc4)CC(O)(C(OC(=O)c4ccccc4)C21)C3(C)C (stereo not drawn) + C=CC(=O)N1CCN(c2nc(OCC3CCCN3C)nc3c2CCN(c2cccc4cccc(C)c24)C3)CC1CC#N .
(A) true (1)

* * *

- Test system: KRAS-mutant PDC tumor spheroid with HUVEC/MSC, viability
- test protocol: Anticancer human tumor 327498-153-R-J2-PDC cell line growth inhibition [KRAS2];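 also: spheroids exposed to agents for seven days before reading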
- test context: curve of first compound; second compound 3.16 µM
reported endpoint: IC50

Worked examples follow.
(Q) Provide only the value of recorded IC50 for CC1COCCN1c1cc(-c2ccnn2C)c2ccnc(-c3ccn[nH]3)c2n1 (stereo unspecified) + CC1OCC2(CCN(c3cnc(Sc4ccnc(N)c4Cl)c(N)n3)CC2)C1N
(A) < 10 nM

(Q) Provide only the value of recorded IC50 for CC1COCCN1c1cc(-c2ccnn2C)c2ccnc(-c3ccn[nH]3)c2n1 (stereo unspecified) + C=CC(=O)N1CCN(c2nc(OCC3CCCN3C)nc3c2CCN(c2cccc4cccc(C)c24)C3)CC1CC#N
(A) < 10 nM

(Q) Provide only the value of recorded IC50 for CC1OCC2(CCN(c3cnc(Sc4ccnc(N)c4Cl)c(N)n3)CC2)C1N (stereo unspecified) + CNCc1ccccc1-c1csc(C(C)Nc2nc(C)nc3cc(OC)c(OC)cc23)c1
(A) < 31.6 nM

(Q) Provide only the value of recorded IC50 for O=C(c1cc(Cc2n[nH]c(=O)c3ccccc23)ccc1F)N1CCN(C(=O)C2CC2)CC1 + C=CC(=O)N1CCN(c2nc(OCC3CCCN3C)nc3c2CCN(c2cccc4cccc(C)c24)C3)CC1CC#N
(A) < 31.6 nM

(Q) Provide only the value of recorded IC50 for CN(C)C/C=C/C(=O)Nc1cc2c(Nc3ccc(F)c(Cl)c3)ncnc2cc1O[C@H]1CCOC1 + C=CC(=O)N1CCN(c2nc(OCC3CCCN3C)nc3c2CCN(c2cccc4cccc(C)c24)C3)CC1CC#N
(A) < 0.316 nM

New cases:
(Q) Provide only the value of recorded IC50 for CC(C)n1nc(-c2ccc3oc(N)nc3c2)c2c(N)ncnc21 + C=CC(=O)N1CCN(c2nc(OCC3CCCN3C)nc3c2CCN(c2cccc4cccc(C)c24)C3)CC1CC#N
(A) < 0.316 nM

* * *

- Tested on: KRAS-mutant PDC tumor spheroid with HUVEC/MSC, viability
- test protocol: Anticancer human tumor 327498-153-R-J2-PDC cell line growth inhibition [KRAS2];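 also: spheroids exposed to agents for seven days before reading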;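 as to viability, T/C: 100% = DMSO vehicle wells so lower means fewer viable cells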
- test context: second compound 0.1 µM; first compound 0.316 µM; stronger effect = lower value
Flag rule - viability, T/C less than 60% flags 1.0; the remaining entries get 0.0.

Field: example entries. Status: answers known.
(Q) Identify whether the compound CC1OCC2(CCN(c3cnc(Sc4ccnc(N)c4Cl)c(N)n3)CC2)C1N (stereo not given) + C=CC(=O)N1CCN(c2nc(=O)n(-c3c(C)ccnc3C(C)C)c3nc(-c4c(O)cccc4F)c(F)cc23)C(C)C1 records viability, T/C below 60%.
(A) 1.0

(Q) Identify whether the compound CC(=O)OC12COC1CC(O)C1(C)C(=O)C(O)C3=C(C)C(OC(=O)C(O)C(NC(=O)OC(C)(C)C)c4ccccc4)CC(O)(C(OC(=O)c4ccccc4)C21)C3(C)C (stereo not given) + C=CC(=O)N1CCN(c2nc(OCC3CCCN3C)nc3c2CCN(c2cccc4cccc(C)c24)C3)CC1CC#N records viability, T/C below 60%.
(A) 1.0

(Q) Identify whether the compound COc1cc2nccc(Oc3ccc(NC(=O)C4(C(=O)Nc5ccc(F)cc5)CC4)cc3)c2cc1OC + CNCc1ccccc1-c1csc(C(C)Nc2nc(C)nc3cc(OC)c(OC)cc23)c1 records viability, T/C below 60%.
(A) 0.0

(Q) Identify whether the compound CC(C)NCC(C(=O)N1CCN(c2ncnc3c2C(C)CC3O)CC1)c1ccc(Cl)cc1 (stereo not given) + CC1OCC2(CCN(c3cnc(Sc4ccnc(N)c4Cl)c(N)n3)CC2)C1N records viability, T/C below 60%.
(A) 1.0

(Q) Identify whether the compound CC(C)NCC(C(=O)N1CCN(c2ncnc3c2C(C)CC3O)CC1)c1ccc(Cl)cc1 (stereo not given) + C=CC(=O)N1CCN(c2nc(OCC3CCCN3C)nc3c2CCN(c2cccc4cccc(C)c24)C3)CC1CC#N records viability, T/C below 60%.
(A) 1.0

Then this compound:
(Q) Identify whether the compound Cn1nccc1Nc1nccc(-c2cc3c(s2)C(C)(C)N(CCN2CCOCC2)C3=O)n1 + CNCc1ccccc1-c1csc(C(C)Nc2nc(C)nc3cc(OC)c(OC)cc23)c1 records viability, T/C below 60%.
(A) 0.0

* * *

- Tested on: KRAS-mutant PDC tumor spheroid with HUVEC/MSC, viability
- test protocol: Anticancer human tumor 327498-153-R-J2-PDC cell line growth inhibition [KRAS2]; active means viability on the fitted dose curve at most 10% of control; inactive means the rest;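 also: spheroids exposed to agents for seven days before reading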
- test context: second compound 0.1 µM; first compound 0.316 µM
Field 'call' accepts class 1 for active, class 0 for inactive

Field: example entries. Status: answers known.
(Q) Please share the test call associated with CC1(C)CCC(CN2CCN(c3ccc(C(=O)NS(=O)(=O)c4ccc(NCC5CCOCC5)c([N+](=O)[O-])c4)c(Oc4cnc5[nH]ccc5c4)c3)CC2)=C(c2ccc(Cl)cc2)C1 + C=CC(=O)N1CCN(c2nc(OCC3CCCN3C)nc3c2CCN(c2cccc4cccc(C)c24)C3)CC1CC#N .
(A) class 0

(Q) Please share the test call associated with CC(=O)OC12COC1CC(O)C1(C)C(=O)C(O)C3=C(C)C(OC(=O)C(O)C(NC(=O)OC(C)(C)C)c4ccccc4)CC(O)(C(OC(=O)c4ccccc4)C21)C3(C)C (stereo not given) + COc1cc2nc(C)nc(NC(C)c3cc(N)cc(C(F)(F)F)c3)c2cc1OC1CCOC1 .
(A) class 1

(Q) Please share the test call associated with CC(=O)OC12COC1CC(O)C1(C)C(=O)C(O)C3=C(C)C(OC(=O)C(O)C(NC(=O)OC(C)(C)C)c4ccccc4)CC(O)(C(OC(=O)c4ccccc4)C21)C3(C)C (stereo not given) + C=CC(=O)N1CCN(c2nc(=O)n(-c3c(C)ccnc3C(C)C)c3nc(-c4c(O)cccc4F)c(F)cc23)C(C)C1 .
(A) class 1

(Q) Please share the test call associated with O=C(c1cc(Cc2n[nH]c(=O)c3ccccc23)ccc1F)N1CCN(C(=O)C2CC2)CC1 + C=CC(=O)N1CCN(c2nc(=O)n(-c3c(C)ccnc3C(C)C)c3nc(-c4c(O)cccc4F)c(F)cc23)C(C)C1 .
(A) class 0

Then this compound:
(Q) Please share the test call associated with CC(=O)OC12COC1CC(O)C1(C)C(=O)C(O)C3=C(C)C(OC(=O)C(O)C(NC(=O)OC(C)(C)C)c4ccccc4)CC(O)(C(OC(=O)c4ccccc4)C21)C3(C)C (stereo not given) + CC1OCC2(CCN(c3cnc(Sc4ccnc(N)c4Cl)c(N)n3)CC2)C1N .
(A) class 1
